Assay Explanation: Cytotoxicity against human MSC cells after 48 hrs by SRB assay
Format: cell-based
Assay Setup: MSC cells
Measured Metric: GI50 at 48 h (µM)

[[record]]
compound = "COc1ccc(CC23CC4CC(CC(C4)C2N)C3)cc1.Cl (configuration not stated)"
measured_metric = "GI50 at 48 h"
quantitative_readout = 24.8

[[record]]
compound = "Cl.NC1C2CC3CC(C2)CC1(Cc1ccccc1)C3 (configuration not stated)"
measured_metric = "GI50 at 48 h"
quantitative_readout = 9.55


* * *

Assay Explanation: Cytotoxicity against human NHDF cells after 48 hrs by SRB assay
Type: cell-based
Assay Setup: NHDF cells
Quick reference: GI50 at 48 h of the listed items.
Measured Metric: GI50 at 48 h (µM)

[[record]]
molecule = "Cl.NC1C2CC3CC(C2)CC1(Cc1ccc(F)cc1)C3 (configuration not stated)"
quantitative_readout = 17.9

[[record]]
molecule = "COc1ccc(CC23CC4CC(CC(C4)C2N)C3)cc1.Cl (configuration not stated)"
quantitative_readout = 27.7

